# System: German cockroaches (Blattella germanica)
# experimentDescription: Aerosol spray test on adult German cockroaches, moribund and mortal rates
# Format: in vivo
# protocolConditions: aerosol per Formulation Example 2 (0.1 part compound); spray time 1.35 seconds, spray amount about 800 mg, from height 50 cm; ten adults; one day after spraying
For each entry below, report its Moribund and mortal rates (%) after one day value.
Please give a number only; it is taken to be in %.

stdin: GET /values?readout=Moribund and mortal rates (%) after one day&item= CCS(=O)(=O)c1cc(C)cnc1-c1nc2cc([S+]([O-])C(F)(F)F)ccc2o1 (stereo not drawn)
stdout: 30

stdin: GET /values?readout=Moribund and mortal rates (%) after one day&item= CCS(=O)(=O)c1cc(C2CC2)cnc1-c1nc2cc([S+]([O-])C(F)(F)F)ccc2o1 (stereo not drawn)
stdout: 100

stdin: GET /values?readout=Moribund and mortal rates (%) after one day&item= `CCS(=O)(=O)c1cc(C)cnc1-c1nc2cc(S(=O)(=O)C(F)(F)F)ccc2o1`
stdout: 15

stdin: GET /values?readout=Moribund and mortal rates (%) after one day&item= `CCS(=O)(=O)c1cc(C2CC2)cnc1-c1nc2cc(S(=O)(=O)C(F)(F)F)ccc2o1`
stdout: 100

stdin: GET /values?readout=Moribund and mortal rates (%) after one day&item= `CCS(=O)(=O)c1cc(C(F)(F)F)cnc1-c1nc2cc(S(=O)(=O)C(F)(F)F)ccc2o1`
stdout: 30

stdin: GET /values?readout=Moribund and mortal rates (%) after one day&item= CCS(=O)(=O)c1cc(C(F)(F)F)cnc1-c1nc2cc([S+]([O-])C(F)(F)F)ccc2o1 (stereo not drawn)
stdout: 30
